protocol-text: NCI Yeast Anticancer Drug Screen. Data for the bub3 strain (AID 167)
condition-notes: S. cerevisiae bub3 mutant strain, at 50.0 µM, hits give high values
The panel holds about 79,000 compounds, 15% with a hit somewhere; the sample as a whole holds those more often.

{"structure": "Cc1ccc(NC(=O)CC/C(CC(=O)C(C)(C)C)=N\\Nc2ccc([N+](=O)[O-])cc2[N+](=O)[O-])cc1C", "growth inhibition / %": 7.8}
{"structure": "CCCCOC(=O)c1ccc(OC(=O)Nc2ccccc2)cc1", "growth inhibition / %": 17.6}
{"structure": "Cc1nc2ccc(C(F)(F)F)cc2nc1Nc1ccc(Cl)c(Cl)c1", "growth inhibition / %": 6.95}
{"structure": "Cc1ccc(-c2cc(=O)c(=O)[nH][nH]2)cc1", "growth inhibition / %": -13.7}
{"structure": "O=C1c2ccccc2C(=O)N1CCS(=O)(=O)CCS(=O)(=O)CCN1C(=O)c2ccccc2C1=O", "growth inhibition / %": -0.95}
